- targetSystem: Cyclin-dependent kinase 1/cyclin B1 (Homo sapiens, UniProt P06493+P14635)
- Sequence (P06493 whole entry, looked up): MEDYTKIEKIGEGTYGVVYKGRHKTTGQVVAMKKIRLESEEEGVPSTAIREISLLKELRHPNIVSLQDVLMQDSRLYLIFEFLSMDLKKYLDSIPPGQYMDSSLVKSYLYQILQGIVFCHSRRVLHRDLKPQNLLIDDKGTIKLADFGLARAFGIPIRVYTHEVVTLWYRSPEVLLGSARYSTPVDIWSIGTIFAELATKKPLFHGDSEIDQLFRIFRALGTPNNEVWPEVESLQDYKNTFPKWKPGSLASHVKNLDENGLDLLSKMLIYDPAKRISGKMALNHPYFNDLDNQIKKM
- Sequence (P14635 whole entry, looked up): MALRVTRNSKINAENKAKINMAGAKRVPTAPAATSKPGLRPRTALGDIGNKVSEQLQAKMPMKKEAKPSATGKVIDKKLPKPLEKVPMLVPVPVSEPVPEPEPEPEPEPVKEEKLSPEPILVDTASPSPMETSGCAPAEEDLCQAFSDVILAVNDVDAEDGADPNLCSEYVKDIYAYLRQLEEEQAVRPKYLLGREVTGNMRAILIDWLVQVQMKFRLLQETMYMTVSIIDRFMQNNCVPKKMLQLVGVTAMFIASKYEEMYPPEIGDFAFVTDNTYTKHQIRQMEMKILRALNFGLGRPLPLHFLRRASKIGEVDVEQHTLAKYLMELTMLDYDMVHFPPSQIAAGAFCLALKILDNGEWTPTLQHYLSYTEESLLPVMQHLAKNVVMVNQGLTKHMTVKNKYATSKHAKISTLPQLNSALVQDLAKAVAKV
- methodSummary: Inhibition of Cyclin dependent kinase 1-cyclin B1 from starfish oocytes at 100 uM
- particulars: Asteroidea, Oocyte
Overview of recorded inhibition for various molecules

molecule | targetSystem | inhibition (%)
COc1ccc(Nc2nc(N)nc(OCC3CCCCC3)c2N=O)cc1 | Cyclin-dependent kinase 1/cyclin B1 (Homo sapiens, UniProt P06493+P14635) | 7
CC(=O)Nc1nc(N)nc(OCC2CCCCC2)c1N=O | Cyclin-dependent kinase 1/cyclin B1 (Homo sapiens, UniProt P06493+P14635) | 36
COC(=O)Nc1nc(N)nc(OCC2CCCCC2)c1N=O | Cyclin-dependent kinase 1/cyclin B1 (Homo sapiens, UniProt P06493+P14635) | 8
Nc1nc(N)c(N)c(OCC2CCCCC2)n1 | Cyclin-dependent kinase 1/cyclin B1 (Homo sapiens, UniProt P06493+P14635) | 40
NC(=O)N/N=C/c1c(N)nc(N)nc1OCC1CCCCC1 | Cyclin-dependent kinase 1/cyclin B1 (Homo sapiens, UniProt P06493+P14635) | 61
Nc1nc(N)c(C(O)c2ccccc2)c(OCC2CCCCC2)n1 (stereo not drawn) | Cyclin-dependent kinase 1/cyclin B1 (Homo sapiens, UniProt P06493+P14635) | 4
Nc1nc(Nc2ccccc2)c(N=O)c(OCC2CCCCC2)n1 | Cyclin-dependent kinase 1/cyclin B1 (Homo sapiens, UniProt P06493+P14635) | 23
Nc1nc(N)c(/C=N/O)c(OCC2CCCCC2)n1 | Cyclin-dependent kinase 1/cyclin B1 (Homo sapiens, UniProt P06493+P14635) | 25
